- Tested on: A. baumannii (ATCC17978)
- procedure text: 50% growth inhibitory concentration (IC50) determination assay, A. baumannii
- Format: cell-based
- condition set: Acinetobacter baumannii, growth inhibition, Iso-Sensitest broth, OD 600 nm over 16 h, <0.098 = detection limit
So basically: is IC50 under 0.4 µM? Then T. Not under? Then F.

INSERT INTO assay_data (compound, group_label) VALUES
  ('CCn1cc(C(=O)O)c(=O)c2cc(-c3cnc4[nH]c5c(NC)cc(F)c(F)c5c4c3N3CCC(N)C3)cnc21 (stereo not drawn) [Example 1.03]', 'F'),
  ('CNc1cc(F)c(F)c2c1[nH]c1ncc(-c3cnc4c(c3)c(=O)c(C(=O)O)cn4C)c(N3CCCC3CN)c12 (stereo not drawn) [Example 1.09]', 'F'),
  ('CNc1cc(F)c(F)c2c1[nH]c1ncc(-c3cnc4c(c3)c(=O)c(C(=O)O)cn4C)c(N3CC[C@H]4CN(CCCN)C[C@H]43)c12 (relative stereo) [Example 1.07]', 'F'),
  ('CNc1cc(F)c(F)c2c1[nH]c1ncc(-c3cnc4c(c3)c(=O)c(C(=O)O)cn4C)c(N3CCC(CN)C3)c12 (stereo not drawn) [Example 1.11]', 'F'),
  ('CCn1cc(C(=O)O)c(=O)c2cc(-c3cnc4[nH]c5c(NC)cc(F)c(F)c5c4c3N3CCC(CN)C3)cnc21 (stereo not drawn) [Example 1.04]', 'F'),
  ('CNc1cc(F)c(F)c2c1[nH]c1ncc(-c3cnc4c(c3)c(=O)c(C(=O)O)cn4C)c(N3CC[C@@H](N)C3)c12 [Example 1.17]', 'F'),
  ('CNc1cc(F)c(C#N)c2c1[nH]c1ncc(-c3cnc4c(c3)c(=O)c(C(=O)O)cn4C)c(N3CC[C@]4(C[C@H]4N)C3)c12 [Example 5.02]', 'F'),
  ('CNc1cc(F)c(Cl)c2c1[nH]c1ncc(-c3cnc4c(c3)c(=O)c(C(=O)O)cn4C)c(N3CC[C@@]4(C[C@H]4N)C3)c12 [Example 4.01]', 'T'),
  ('CNc1cc(F)c(Cl)c2c1[nH]c1ncc(-c3cnc4c(c3)c(=O)c(C(=O)O)cn4C)c(N3CC[C@@]4(C[C@@H]4N)C3)c12 [Example 4.03]', 'T'),
  ('CNc1cc(F)c(F)c2c1[nH]c1ncc(-c3cnc4c(c3)c(=O)c(C(=O)O)cn4C)c(N3C[C@H]4CCC[C@@]4(N)C3)c12 (stereo in doubt) [Example 1.12]', 'F'),
  ('CNc1cc(F)c(Cl)c2c1[nH]c1ncc(-c3cnc4c(c3)c(=O)c(C(=O)O)cn4C)c(N3CC[C@]4(C[C@@H]4N)C3)c12 [Example 4.02]', 'T'),
  ('CNc1cc(F)c(F)c2c1[nH]c1ncc(-c3cnc4c(c3)c(=O)c(C(=O)O)cn4C)c(N3CC[C@]4(C[C@@H]4N)C3)c12 [Example 3.04]', 'T');

---

Below, each entry is listed alongside its reported IC50.
- Tested on: A. baumannii (ATCC17978)
- procedure text: 50% growth inhibitory concentration (IC50) determination assay, A. baumannii
- Assay type: cell-based
- condition set: Acinetobacter baumannii, growth inhibition, Iso-Sensitest broth, OD 600 nm over 16 h, <0.098 = detection limit
endpoint label: IC50

INSERT INTO assay_data (compound, measured_value) VALUES
  ('CNc1cc(F)c(F)c2c1[nH]c1ncc(-c3cnc4c(c3)c(=O)c(C(=O)O)cn4C)c(N3CC4(CCC4N)C3)c12 (stereo not drawn) [Example 1.02]', '2.86 µM'),
  ('CNc1cc(F)c(Cl)c2c1[nH]c1ncc(-c3cnc4c(c3)c(=O)c(C(=O)O)cn4C)c(N3CC[C@]4(C[C@H]4N)C3)c12 [Example 4.04]', '0.0793 µM'),
  ('CNc1cc(F)c(F)c2c1[nH]c1ncc(-c3cnc4c(c3)c(=O)c(C(=O)O)cn4C)c(N3CC4CC4(CN)C3)c12 (stereo not drawn) [Example 1.06]', '2.48 µM');

Sourced from patent US20210323981A1
